The measurements presented in this section are drawn from patent EP4813979A1.

Measurement protocol: Pharmacokinetic tests in male SD rats
Type: in vivo
Stated conditions: rat, in vivo, oral gavage (po), 10 mg/kg, plasma
Test readout: AUC(0-inf) (ng·h/mL)
The response must be a number in ng·h/mL with no trailing unit.

Return value of AUC(0-inf) for input `CCc1cc(Nc2ncc(Br)c(Nc3ccccc3P(C)(C)=O)n2)c(OC)cc1N1CCN(C(=O)Cn2nc(C)c(-c3cc4c(cc3F)c(N3CCC(=O)NC3=O)nn4C)c2C)CC1` , no commentary.
4140

====

System: Baf3-L858R-T790M - C797S (Baf3-LTC)
Measurement protocol: Cell anti-proliferation experiment (CTG)
Format: cell-based
Stated conditions: 72 h, class symbol
pIC50: −log10 of the molar value.
Test readout: pIC50

Known pIC50 results, listed for orientation:
# Compound, Target under test, Result
rows = [
    ("CCc1cc(Nc2ncc(Br)c(Nc3ccccc3P3(=O)CCCC3)n2)c(OC)cc1N1CC2(CCN(C(=O)CN3CCC(c4cc5c(cc4F)c(N4CCC(=O)NC4=O)nn5C)CC3)CC2)C1 [TB-008]", "Baf3-L858R-T790M - C797S (Baf3-LTC)", "7.00 to 8.00"),
    ("CCc1cc(Nc2ncc(Cl)c(Nc3ccccc3C(=O)NC)n2)c(OC)cc1N1CCN(CCN2CCC(c3cc4c(cc3F)c(N3CCC(=O)NC3=O)nn4C)CC2)CC1 [TD-001]", "Baf3-L858R-T790M - C797S (Baf3-LTC)", "7.00 to 8.00"),
    ("CCc1cc(Nc2ncc(Cl)c(Nc3ccccc3P(C)(C)=O)n2)c(OC)cc1N1CCC2(CC1)CN(C(=O)CN1CCC(c3cc4c(cc3F)c(N3CCC(=O)NC3=O)nn4C)C(F)(F)C1)C2 (centres unmarked) [TC-225]", "Baf3-L858R-T790M - C797S (Baf3-LTC)", "7.00 to 8.00"),
    ("CCc1cc(Nc2ncc(Cl)c(Nc3ccccc3C(=O)NC)n2)c(OC)cc1N1CC2(CN(C(=O)CN3CCC(c4cc5c(cc4F)c(N4CCC(=O)NC4=O)nn5C)C(F)(F)C3)C2)C1 (centres unmarked) [TA-019]", "Baf3-L858R-T790M - C797S (Baf3-LTC)", "7.00 to 8.00"),
    ("CCc1cc(Nc2ncc(Br)c(Nc3ccccc3P(C)(C)=O)n2)c(OC)cc1N1CCN(C(=O)CN2CCC(c3cc4c(cc3F)c(N3CCC(=O)NC3=O)nn4-c3ccccc3)C(F)(F)C2)CC1 (centres unmarked) [TC-150]", "Baf3-L858R-T790M - C797S (Baf3-LTC)", "7.00 to 8.00"),
]

Return value of pIC50 for input CCc1cc(Nc2ncc(Cl)c(Nc3ccccc3P(C)(C)=O)n2)c(OC)cc1N1CCC2(CCN(C(=O)CN3CCC(c4cc5c(cc4F)c(N4CCC(=O)NC4=O)nn5C)C(F)(F)C3)CC2)C1 (centres unmarked) [TC-111] , no commentary.
7.00 to 8.00

Return value of pIC50 for input CCc1cc(Nc2ncc(Br)c(Nc3ccccc3C(=O)NC)n2)c(OC)cc1N1CCN(C(=O)CN2CCC(c3cc4c(cc3F)c(N3CCC(=O)NC3=O)nn4C)C(F)(F)C2)CC1 (centres unmarked) [TA-004] , no commentary.
7.00 to 8.00

Return value of pIC50 for input CCc1cc(Nc2ncc(Br)c(Nc3ccccc3P(C)(C)=O)n2)c(OC)cc1N1CCC2(CC1)CN(C(=O)CN1CCC(c3cc4c(cc3F)c(N3CCC(=O)NC3=O)nn4C)C(F)(F)C1)C2 (centres unmarked) [TC-226] , no commentary.
> 8.00
